// values below are reported pKi
Assay Protocol: Inhibition of Porphyromonas gingivalis recombinant SerB653 phosphatase expressed in Escherichia coli BL21 using phosphoserine as substrate measured every 10 secs by malachite green colorimetric assay
pKi: −log10 of the molar value.
Reported Property: pKi

chemical_string=O=C(c1c(Nc2cc(F)cc(F)c2)[nH]c2c(Cl)ccc([N+](=O)[O-])c2c1=O)C1CC1 measured_number=6.00
chemical_string=CCC(=O)c1c(Nc2ccc(Cl)c(Cl)c2)[nH]c2c(Cl)ccc([N+](=O)[O-])c2c1=O measured_number=5.39
chemical_string=O=C(c1c(Nc2ccc(Cl)c(Cl)c2)[nH]c2c(Cl)ccc(Cl)c2c1=O)C1CC1 measured_number=5.39
chemical_string=CCC(=O)c1c(Nc2cccc(Cl)c2Cl)[nH]c2c(Cl)ccc([N+](=O)[O-])c2c1=O measured_number=5.70
chemical_string=CC(=O)c1c(Nc2ccc(C(F)(F)F)cc2)[nH]c2c(C(F)(F)F)cc(Cl)cc2c1=O measured_number=5.60
chemical_string=CC(C)C(=O)c1c(Nc2cc(Cl)cc(Cl)c2)[nH]c2c(Cl)ccc(Cl)c2c1=O measured_number=5.48
chemical_string=CC(C)C(=O)c1c(Nc2ccc(Cl)cc2Cl)[nH]c2c(Cl)ccc(Cl)c2c1=O measured_number=5.54
chemical_string=CCC(=O)c1c(Nc2cc(Cl)cc(Cl)c2)[nH]c2c(Cl)ccc([N+](=O)[O-])c2c1=O measured_number=5.60
chemical_string=O=C(c1c(Nc2ccc(F)cc2F)[nH]c2c(Cl)ccc([N+](=O)[O-])c2c1=O)C1CC1 measured_number=5.40

----------
Assay Protocol: Inhibition of Porphyromonas gingivalis recombinant SerB653 phosphatase expressed in Escherichia coli BL21 using phosphoserine as substrate after 1 hr by malachite green colorimetric assay
Reported Property: IC50 (µM)

chemical_string=CC(=O)c1c(Nc2ccccc2Cl)[nH]c2c(C(F)(F)F)cc(Cl)cc2c1=O u=µM measured_number=16.8
chemical_string=CCC(=O)c1c(Nc2cc(F)cc(F)c2)[nH]c2c(Cl)ccc([N+](=O)[O-])c2c1=O u=µM measured_number=19.4
chemical_string=CC(C)C(=O)c1c(Nc2cc(Cl)cc(Cl)c2)[nH]c2c(Cl)ccc(Cl)c2c1=O u=µM measured_number=9.2
chemical_string=CC(=O)c1c(Nc2cc(Cl)ccc2Cl)[nH]c2c(Cl)ccc(Cl)c2c1=O u=µM measured_number=16.7
chemical_string=CC(C)C(=O)c1c(Nc2cc(Cl)cc(Cl)c2)[nH]c2c(Cl)ccc([N+](=O)[O-])c2c1=O u=µM measured_number=17.9

----------
// values below are reported inhibition
Test system: Porphyromonas gingivalis
Assay Protocol: Inhibition of Porphyromonas gingivalis recombinant SerB653 phosphatase expressed in Escherichia coli BL21 using phosphoserine as substrate at 50 uM after 1 hr by malachite green colorimetric assay
Reported Property: inhibition (%)

chemical_string=CCC(=O)c1c(Nc2cccc(Cl)c2Cl)[nH]c2c(Cl)ccc([N+](=O)[O-])c2c1=O reported_property=inhibition measured_number=97.1
chemical_string=CC(=O)c1c(Nc2ccc(Cl)cc2)[nH]c2c(C(F)(F)F)cc(Cl)cc2c1=O reported_property=inhibition measured_number=95.7
chemical_string=CC(C)CC(=O)c1c(Nc2cc(F)ccc2F)[nH]c2c(Cl)ccc(Cl)c2c1=O reported_property=inhibition measured_number=91
chemical_string=O=C(c1c(Nc2cccc(Cl)c2Cl)[nH]c2c(Cl)ccc([N+](=O)[O-])c2c1=O)C1CC1 reported_property=inhibition measured_number=98.5

----------
Assay Protocol: Inhibition of Porphyromonas gingivalis recombinant SerB653 phosphatase expressed in Escherichia coli BL21 using phosphoserine as substrate after 1 hr by malachite green colorimetric assay
pIC50: −log10 of the molar value.
Reported Property: pIC50

chemical_string=CC(C)C(=O)c1c(Nc2ccc(F)cc2F)[nH]c2c(Cl)ccc([N+](=O)[O-])c2c1=O measured_number=4.91
chemical_string=CC(=O)c1c(Nc2cc(Cl)ccc2Cl)[nH]c2c(Cl)ccc([N+](=O)[O-])c2c1=O measured_number=4.72
chemical_string=O=C(c1c(Nc2ccc(F)cc2F)[nH]c2c(Cl)ccc([N+](=O)[O-])c2c1=O)C1CC1 measured_number=4.95
chemical_string=CC(C)CC(=O)c1c(Nc2cccc(Cl)c2Cl)[nH]c2c(Cl)ccc([N+](=O)[O-])c2c1=O measured_number=4.72
chemical_string=CC(C)CC(=O)c1c(Nc2cc(Cl)cc(Cl)c2)[nH]c2c(Cl)ccc([N+](=O)[O-])c2c1=O measured_number=4.73
chemical_string=CC(C)C(=O)c1c(Nc2ccc(Cl)cc2Cl)[nH]c2c(Cl)ccc(Cl)c2c1=O measured_number=5.10
chemical_string=CC(=O)c1c(Nc2cc(C(F)(F)F)cc(C(F)(F)F)c2)[nH]c2c(Cl)ccc(F)c2c1=O measured_number=4.71
chemical_string=O=C(c1c(Nc2ccc(Cl)cc2Cl)[nH]c2c(Cl)ccc([N+](=O)[O-])c2c1=O)C1CC1 measured_number=4.75
chemical_string=CCC(=O)c1c(Nc2cc(Cl)ccc2Cl)[nH]c2c(Cl)ccc([N+](=O)[O-])c2c1=O measured_number=5.40
chemical_string=CC(=O)c1c(Nc2cc(Cl)cc(Cl)c2)[nH]c2c(Cl)ccc([N+](=O)[O-])c2c1=O measured_number=4.73
chemical_string=CC(C)C(=O)c1c(Nc2ccc(Cl)cc2F)[nH]c2c(Cl)ccc([N+](=O)[O-])c2c1=O measured_number=4.78
chemical_string=CC(=O)c1c(Nc2ccc(Cl)cc2Cl)[nH]c2c(C(F)(F)F)cc(Cl)cc2c1=O measured_number=5.15
chemical_string=O=C(c1c(Nc2cccc(Cl)c2Cl)[nH]c2c(Cl)ccc([N+](=O)[O-])c2c1=O)C1CC1 measured_number=4.90
chemical_string=CC(C)CC(=O)c1c(Nc2cc(F)ccc2F)[nH]c2c(Cl)ccc(Cl)c2c1=O measured_number=4.71
chemical_string=CCC(=O)c1c(Nc2ccc(Cl)cc2Cl)[nH]c2c(Cl)ccc([N+](=O)[O-])c2c1=O measured_number=4.71
chemical_string=CC(C)CC(=O)c1c(Nc2cc(F)cc(F)c2)[nH]c2c(Cl)ccc([N+](=O)[O-])c2c1=O measured_number=4.79
chemical_string=O=C(c1c(Nc2ccc(Cl)cc2F)[nH]c2c(Cl)ccc([N+](=O)[O-])c2c1=O)C1CC1 measured_number=4.73
chemical_string=O=C(c1c(Nc2cc(F)cc(F)c2)[nH]c2c(Cl)ccc([N+](=O)[O-])c2c1=O)C1CC1 measured_number=5.55
chemical_string=O=C(c1c(Nc2cc(Cl)cc(Cl)c2)[nH]c2c(Cl)ccc([N+](=O)[O-])c2c1=O)C1CC1 measured_number=4.77
chemical_string=CC(=O)c1c(Nc2cc(C(F)(F)F)cc(C(F)(F)F)c2)[nH]c2c(F)ccc(F)c2c1=O measured_number=4.71
chemical_string=CC(=O)c1c(Nc2ccc(Cl)cc2)[nH]c2c(C(F)(F)F)cc(Cl)cc2c1=O measured_number=5.12
chemical_string=CC(=O)c1c(Nc2cc(F)cc(F)c2)[nH]c2c(Cl)c(Cl)ccc2c1=O measured_number=4.73
chemical_string=CC(=O)c1c(Nc2ccc(C(F)(F)F)cc2)[nH]c2c(C(F)(F)F)cc(Cl)cc2c1=O measured_number=5.15
chemical_string=CC(C)C(=O)c1c(Nc2cc(F)cc(F)c2)[nH]c2c(Cl)ccc([N+](=O)[O-])c2c1=O measured_number=4.72
chemical_string=CC(=O)c1c(Nc2cc(F)cc(F)c2)[nH]c2c([N+](=O)[O-])cc(Cl)cc2c1=O measured_number=4.75
chemical_string=O=C(c1c(Nc2cc(Cl)ccc2Cl)[nH]c2c(Cl)ccc([N+](=O)[O-])c2c1=O)C1CC1 measured_number=4.73
chemical_string=CC(C)CC(=O)c1c(Nc2ccc(Cl)cc2F)[nH]c2c(Cl)ccc([N+](=O)[O-])c2c1=O measured_number=4.71
chemical_string=O=C(c1c(Nc2ccc(Cl)c(Cl)c2)[nH]c2c(Cl)ccc(Cl)c2c1=O)C1CC1 measured_number=4.94
chemical_string=CCC(=O)c1c(Nc2cccc(Cl)c2Cl)[nH]c2c(Cl)ccc([N+](=O)[O-])c2c1=O measured_number=5.26
chemical_string=CC(=O)c1c(Nc2cccc(Cl)c2Cl)[nH]c2c(Cl)ccc([N+](=O)[O-])c2c1=O measured_number=4.71
chemical_string=CC(C)C(=O)c1c(Nc2cc(Cl)ccc2Cl)[nH]c2c(Cl)ccc([N+](=O)[O-])c2c1=O measured_number=4.72
chemical_string=CC(C)CC(=O)c1c(Nc2ccc(Cl)cc2Cl)[nH]c2c(Cl)ccc([N+](=O)[O-])c2c1=O measured_number=4.71
